Reported MIC values are given for each entry in this list.
Test system: P. multocida
Test: In vitro antibacterial activity, broth microdilution MIC (CLSI M31-A2)
Assay type: cell-based, Pasteurella multocida
Conditions: Pasteurella multocida, P. multocida (swine) strain 11745-15; read-out: MIC
Respond numerically; units are µg/mL and should not be typed.

Reference set (3 entries):
| COMPOUND | MIC (µg/mL) |
| --- | --- |
| CC[C@H]1OC(=O)C[C@@H](O)[C@H](C)[C@@H](O[C@@H]2O[C@H](C)[C@@H](O[C@H]3C[C@@](C)(O)[C@@H](O)[C@H](C)O3)[C@H](N(C)C)[C@H]2O)[C@@H](CC=O)C[C@@H](C)C(=O)/C=C/C(C)=C/[C@@H]1CO[C@@H]1O[C@H](C)[C@@H](O)[C@@H](OC)[C@H]1OC [TS, tylosin] | 64 |
| CC[C@H]1OC(=O)C[C@@H](O)[C@H](C)[C@@H](O[C@@H]2O[C@H](C)[C@@H](O)[C@H](N(C)C)[C@H]2O)[C@@H](CCN2C[C@H](C)C[C@H](C)C2)C[C@@H](C)C(=O)/C=C/C(C)=C/[C@@H]1CO[C@@H]1O[C@H](C)[C@@H](O)[C@@H](OC)[C@H]1OC [TMS, tilmicosin] | 16 |
| CO[C@@H]1C(OC2O[C@@H](C)C(O)C(N(C)C)C2O)[C@@H](CC=O)C[C@@H](C)[C@@H](OC(C)=O)/C=C/[C@@H](N(C)CCCc2ccnc3ccccc23)[C@@H](O)C[C@@H](C)OC(=O)C[C@H]1OC(C)=O (stereo partly shown) [Compound of formula (I)] | 4 |

Now consider a different compound.
What does the data say about its MIC? Entry: CO[C@@H]1[C@@H](O[C@@H]2O[C@H](C)[C@@H](O[C@H]3C[C@@](C)(O)[C@@H](OC(=O)CC(C)C)[C@H](C)O3)[C@H](N(C)C)[C@H]2O)[C@@H](CC=O)C[C@@H](C)[C@@H](O)/C=C/C=C/C[C@@H](C)OC(=O)C[C@H]1OC(C)=O [JM, josamycin]
32
